assay: Intrinsic clearance in Han Wistar rat hepatocytes assessed per 10^6 cells; assay type: ADME, cell-based, Hepatocyte; settings: read-out: CLH
recordedMetric: hepatocyte CLint (µL/min/1e6 cells)

COc1ccc2c(c1)C[C@@H](C)N(CC(C)C)[C@@H]2c1ccc(/C=C/C(=O)O)cc1 ... 43
CC(C)CN1CCc2cc(O)ccc2[C@@]1(C)c1ccc(/C=C/C(=O)O)cc1 ... 33

1: CC(C)CN1[C@H](c2ccc(/C=C/C(=O)O)cc2)c2ccc(O)cc2C[C@H]1C
2: O=C(O)/C=C/c1ccc(C2c3ccc(O)cc3CCN2c2ccccc2)cc1 (centres undefined)
3: COC[C@H](C)CN1[C@H](c2c(F)cc(/C=C/C(=O)O)cc2F)c2ccc(O)cc2CC1(C)C
Incoming: List from greatest to least hepatocyte CLint. Enter labels, ranked according to the request.
Outgoing: 3, 2, 1

---

test: Percentage unbound in Han Wistar rat plasma by equilibrium dialysis method; format: ADME, cell-free
recordedMetric: fraction unbound

CC(C)CN1[C@H](c2ccc(/C=C/C(=O)O)cc2)c2ccccc2C[C@H]1C ... 0.016

P: C[C@H](CF)CN1[C@H](c2c(F)cc(/C=C/C(=O)O)cc2F)c2ccc(O)cc2CC1(C)C
Q: CC(C)CN1CCc2cc(O)ccc2[C@@]1(C)c1ccc(/C=C/C(=O)O)cc1
R: COc1ccc2c(c1)C[C@@H](C)N(CC(C)C)[C@@H]2c1ccc(/C=C/C(=O)O)cc1
S: O=C(O)/C=C/c1ccc(C2c3ccc(O)cc3CCN2Cc2ccccc2)cc1 (stereo not given)
Incoming: Sort (4 compounds) by fraction unbound: min first. Enter labels, ranked according to the request.
Outgoing: P, S, Q, R

---

assay: Half life in rat at 0.5 mg/kg, iv; type: ADME, organism-based; conditions: in vivo
recordedMetric: half-life (h)

CC(C)CN1[C@H](c2ccc(/C=C/C(=O)O)cc2)c2ccc(O)cc2C[C@H]1C ... 0.2

1: CC(C)CN1CCc2cc(O)ccc2[C@H]1c1ccc(/C=C/C(=O)O)cc1
2: CC(C)CN1[C@H](c2ccc(/C=C/C(=O)O)cc2)c2ccc(O)cc2CC1(C)C
3: CC(C)CN1[C@H](C)Cc2cc(O)ccc2[C@@]1(C)c1ccc(/C=C/C(=O)O)cc1
Incoming: List from greatest to least half-life. Enter labels, ranked according to the request.
Outgoing: 2, 3, 1
(2: 5.8 h, 3: 2.4 h, 1: 0.2 h)

A: COC[C@H](C)CN1[C@H](c2ccc(/C=C/C(=O)O)cc2)c2ccc(O)cc2C[C@H]1C
B: C[C@@H]1Cc2cc(O)ccc2[C@@H](c2ccc(/C=C/C(=O)O)cc2)N1c1ccc(OC(F)(F)F)cc1
Incoming: In terms of reported half-life, does A or B have the smaller number? # reply format: chosen label
Outgoing: A
(A: 0.2 h, B: 4.2 h)

---

experiment: Clearance in rat at 0.5 mg/kg, iv or 1 mg/kg, po; type: ADME, organism-based; conditions: in vivo
recordedMetric: clearance (mL/min/kg)

a: COC[C@H](C)CN1[C@H](c2ccc(/C=C/C(=O)O)cc2)c2ccc(O)cc2C[C@H]1C
b: C[C@@H]1Cc2cc(O)ccc2[C@@H](c2ccc(/C=C/C(=O)O)cc2)N1c1ccc(OC(F)(F)F)cc1
c: CC(C)CN1[C@H](C)Cc2cc(O)ccc2[C@@]1(C)c1ccc(/C=C/C(=O)O)cc1
d: CC(C)CN1CCc2cc(O)ccc2[C@H]1c1ccc(/C=C/C(=O)O)cc1
Incoming: Order the 4 listed items from lowest to highest according to clearance. Enter labels, ranked according to the request.
Outgoing: b, c, d, a

1: CC(C)CN1[C@H](c2ccc(/C=C/C(=O)O)cc2)c2ccc(O)cc2C[C@H]1C
2: CC(C)CN1[C@H](c2ccc(/C=C/C(=O)O)cc2)c2ccc(O)cc2CC1(C)C
Incoming: In terms of reported clearance, does 1 or 2 have the smaller number? # reply format: chosen label
Outgoing: 2

---

experiment: Volume of distribution at steady state in rat at 0.5 mg/kg, iv or 1 mg/kg, po; assay type: ADME, organism-based; conditions: in vivo, read-out: Vdss
recordedMetric: Vd (L/kg)

Consider the reported Vd for these compounds:
COC[C@H](C)CN1[C@H](c2ccc(/C=C/C(=O)O)cc2)c2ccc(O)cc2C[C@H]1C ... 0.6
CC(C)CN1CCc2cc(O)ccc2[C@H]1c1ccc(/C=C/C(=O)O)cc1 ... 0.5
C[C@@H]1Cc2cc(O)ccc2[C@@H](c2ccc(/C=C/C(=O)O)cc2)N1c1ccc(OC(F)(F)F)cc1 ... 1.1
CC(C)CN1[C@H](c2ccc(/C=C/C(=O)O)cc2)c2ccc(O)cc2C[C@H]1C ... 0.6

P: CC(C)CN1[C@H](C)Cc2cc(O)ccc2[C@@]1(C)c1ccc(/C=C/C(=O)O)cc1
Q: CC(C)CN1[C@H](c2ccc(/C=C/C(=O)O)cc2)c2ccc(O)cc2CC1(C)C
Incoming: Vd comparison. Which is larger, P or Q ? # reply format: chosen label
Outgoing: Q
(Q: 5.9 L/kg, P: 1.6 L/kg)

---

test: Percentage unbound in Han Wistar rat plasma by equilibrium dialysis method; type: ADME, cell-free
recordedMetric: fraction unbound

C[C@@H]1Cc2cc(O)ccc2[C@@H](c2c(F)cc(/C=C/C(=O)O)cc2F)N1CC(C)(C)F ... 0.011

A: C[C@H](CF)CN1[C@H](c2ccc(/C=C/C(=O)O)cc2)c2ccc(O)cc2CC1(C)C
B: O=C(O)/C=C/c1ccc(C2c3ccc(O)cc3CCN2c2ccc(OC(F)(F)F)cc2)cc1 (centres undefined)
Incoming: In terms of reported fraction unbound, does A or B have the smaller number? # reply format: chosen label
Outgoing: B

1: CC(C)(F)CN1[C@H](c2ccc(/C=C/C(=O)O)cc2)c2ccc(O)cc2CC1(C)C
2: CC(C)CN1[C@H](C)Cc2cc(O)ccc2[C@@]1(C)c1ccc(/C=C/C(=O)O)cc1
Incoming: In terms of reported fraction unbound, does 1 or 2 have the smaller number? # reply format: chosen label
Outgoing: 2

A: CC(C)CN1CCc2cc(O)ccc2[C@H]1c1ccc(/C=C/C(=O)O)cc1
B: C[C@H](CF)CN1[C@H](c2ccc(/C=C/C(=O)O)cc2)c2ccc(O)cc2C[C@H]1C
C: C[C@@H]1Cc2cc(O)ccc2[C@@H](c2ccc(/C=C/C(=O)O)cc2)N1c1ccc(OC(F)(F)F)cc1
D: Cc1cc2c(cc1O)CCN(CC(C)C)[C@@H]2c1ccc(/C=C/C(=O)O)cc1
E: COC[C@H](C)CN1[C@H](c2c(F)cc(/C=C/C(=O)O)cc2F)c2ccc(O)cc2C[C@H]1C
Incoming: List from greatest to least fraction unbound. Enter labels, ranked according to the request.
Outgoing: D, E, A, B, C

I: COC[C@H](C)CN1[C@H](c2ccc(/C=C/C(=O)O)cc2)c2ccc(O)cc2C[C@H]1C
II: O=C(O)/C=C/c1ccc(C2c3ccc(O)cc3CCN2c2ccccc2)cc1 (centres undefined)
Incoming: fraction unbound comparison. Which is larger, I or II ? # reply format: chosen label
Outgoing: I
(I: 0.12, II: 0.012)

---

target: Mu-type opioid receptor (Homo sapiens, UniProt P35372); assay: Inhibition of human recombinant mu1 opioid receptor expressed in HEK293 cells
Sequence (P35372 whole entry): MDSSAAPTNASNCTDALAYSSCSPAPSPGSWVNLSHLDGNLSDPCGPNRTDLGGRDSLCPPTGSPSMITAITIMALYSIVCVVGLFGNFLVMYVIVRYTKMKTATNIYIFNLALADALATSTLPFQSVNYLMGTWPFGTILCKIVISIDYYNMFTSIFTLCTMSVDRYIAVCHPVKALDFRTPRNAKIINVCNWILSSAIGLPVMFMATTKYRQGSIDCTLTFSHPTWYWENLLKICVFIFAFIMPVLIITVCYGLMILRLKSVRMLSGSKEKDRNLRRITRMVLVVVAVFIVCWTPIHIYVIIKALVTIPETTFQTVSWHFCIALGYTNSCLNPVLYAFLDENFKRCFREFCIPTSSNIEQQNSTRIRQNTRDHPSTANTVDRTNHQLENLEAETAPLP
recordedMetric: pIC50
Interpret pIC50 as the negative base-10 log of the concentration measured in mol/L.

Incoming: Please supply the value of reported pIC50 for the item "CC(C)CN1[C@H](c2ccc(/C=C/C(=O)O)cc2)c2ccc(O)cc2C[C@H]1C"
Outgoing: 4.92

---

assay: physchem; conditions: buffer, pH 7.4
recordedMetric: logD

Consider the reported logD for these compounds:
COC[C@H](C)CN1[C@H](c2c(F)cc(/C=C/C(=O)O)cc2F)c2ccc(O)cc2CC1(C)C ... 2
O=C(O)/C=C/c1ccc(C2c3ccc(O)cc3CCN2c2ccc(OC(F)(F)F)cc2)cc1 (centres undefined) ... 3.7

I: CC(C)CN1[C@H](c2c(F)cc(/C=C/C(=O)O)cc2F)c2ccc(O)cc2CC1(C)C
II: COC[C@H](C)CN1[C@H](c2ccc(/C=C/C(=O)O)cc2)c2ccc(O)cc2C[C@H]1C
Incoming: logD comparison. Which is larger, I or II ? # reply format: chosen label
Outgoing: I
(I: 2.7, II: 1)

---

assay: Percentage unbound in Han Wistar rat plasma by equilibrium dialysis method; type: ADME, cell-free
recordedMetric: fraction unbound

CC(C)CN1[C@H](c2ccc(/C=C/C(=O)O)cc2)c2ccc(O)cc2C[C@H]1C ... 0.075
C[C@H](CF)CN1[C@H](c2c(F)cc(/C=C/C(=O)O)cc2F)c2ccc(O)cc2C[C@H]1C ... 0.01

I: Cc1c(O)ccc2c1CCN(CC(C)C)[C@@H]2c1ccc(/C=C/C(=O)O)cc1
II: COC[C@H](C)CN1[C@H](c2c(F)cc(/C=C/C(=O)O)cc2F)c2ccc(O)cc2CC1(C)C
Incoming: In terms of reported fraction unbound, does I or II have the smaller number? # reply format: chosen label
Outgoing: II

src = ChEMBL document CHEMBL3774369
